- protocol_description: total protein half-life in vivo (active degradation + dilution); higher = more stable protein
- condition_description: wild type E. coli NCM3722; growth: P-lim chemostat; doubling time 12 h
I'd appreciate it if you could supply total protein half-life in vivo values for the items below.
One number for each entry, in h.

{"columns": ["chain_sequence", "total protein half-life in vivo, h"],
 "data": [
  ["MLDNVLRIATRQSPLALWQAHYVKDKLMASHPGLVVELVPMVTRGDVILDTPLAKVGGKGLFVKELEVALLENRADIAVHSMKDVPVEFPQGLGLVTICEREDPRDAFVSNNYDSLDALPAGSIVGTSSLRRQCQLAERRPDLIIRSLRGNVGTRLSKLDNGEYDAIILAVAGLKRLGLESRIRAALPPEISLPAVGQGAVGIECRLDDSRTRELLAALNHHETALRVTAERAMNTRLEGGCQVPIGSYAELIDGEIWLRALVGAPDGSQIIRGERRGAPQDAEQMGISLAEELLNNGAREILAEVYNGDAPA", 11.4]
]}

Report total protein half-life in vivo for each item below.
1. MTRPIQASLDLQALKQNLSIVRQAATHARVWSVVKANAYGHGIERIWSAIGATDGFALLNLEEAITLRERGWKGPILMLEGFFHAQDLEIYDQHRLTTCVHSNWQLKALQNARLKAPLDIYLKVNSGMNRLGFQPDRVLTVWQQLRAMANVGEMTLMSHFAEAEHPDGISGAMARIEQAAEGLECRRSLSNSAATLWHPEAHFDWVRPGIILYGASPSGQWRDIANTGLRPVMTLSSEIIGVQTLKAGERVGYGGRYTARDEQRIGIVAAGYADGYPRHAPTGTPVLVDGVRTMTVGTVSMDMLAVDLTPCPQAGIGTPVELWGKEIKIDDVAAAAGTVGYELMCALALRVPVVTV
2. MQSWYLLYCKRGQLQRAQEHLERQAVNCLAPMITLEKIVRGKRTAVSEPLFPNYLFVEFDPEVIHTTTINATRGVSHFVRFGASPAIVPSAVIHQLSVYKPKDIVDPATPYPGDKVIITEGAFEGFQAIFTEPDGEARSMLLLNLINKEIKHSVKNTEFRKL [P0AFW0]
3. MKYRIALAVSLFALSAGSYATTLCQEKEQNILKEISYAEKHQNQNRIDGLNKALSEVRANCSDSQLRADHQKKIAKQKDEVAERQQDLAEAKQKGDADKIAKRERKLAEAQEELKKLEARDY

# output
1: 11.9; 2: 7.71; 3: 10.6
